assay: Binding affinity to CDK4/D
quantity.kind: log(10'6/IC50)

Below, 5 molecules whose answers are already recorded.
COCn1c(=O)ccc2cnc(Nc3ccccc3)nc21 ... 2.38
CN1CCN(c2ccc(Nc3ncc4ccc(=O)n([C@H]5C[C@H]6CC[C@H]5C6)c4n3)cc2)CC1 (relative stereo) ... 5.22
CCN(CC)CCOc1ccc(Nc2ncc3ccc(=O)n(C4CCCCC4)c3n2)cc1 ... 4.96
CC(C)CCn1c(=O)ccc2cnc(Nc3ccccc3)nc21 ... 3.8
O=c1ccc2cnc(Nc3ccccc3)nc2n1CC1CO1 (stereo not drawn) ... 2.3

A: COCCn1c(=O)ccc2cnc(Nc3ccccc3)nc21
B: CN1CCN(c2ccc(Nc3ncc4ccc(=O)n(-c5ccccc5)c4n3)cc2)CC1
In: log(10'6/IC50) comparison. Which is larger, A or B ? Refer to your chosen item by its label in the answer.
Out: B

I: CCN(CC)CCOc1ccc(Nc2ncc3ccc(=O)n(CC)c3n2)cc1
II: CCn1c(=O)ccc2cnc(NC3CCCCC3)nc21
In: Please indicate which has the smaller reported log(10'6/IC50): I , or II . Refer to your chosen item by its label in the answer.
Out: II

a: CCn1c(=O)ccc2cnc(Nc3ccc(O)c(OC)c3)nc21
b: CCn1c(=O)ccc2cnc(Nc3cccc(OC)c3)nc21
In: log(10'6/IC50) comparison. Which is larger, a or b ? Refer to your chosen item by its label in the answer.
Out: a
(a: 2.74, b: 1.4)

---

assay: Binding affinity to CDK4/D
quantity.kind: log(10'6/IC50)

Below, 5 compounds whose answers are already recorded.
CCN(CC)CCOc1ccc(Nc2ncc3ccc(=O)n(C4CCCCCC4)c3n2)cc1 ... 5.4
CC(C)CCn1c(=O)ccc2cnc(Nc3ccc(N4CCN(C)CC4)cc3)nc21 ... 4.89
CN1CCN(c2ccc(Nc3ncc4ccc(=O)n(C5CCCC5)c4n3)cc2)CC1 ... 5.05
CN1CCN(c2ccc(Nc3ncc4ccc(=O)n(C5CCCCC5)c4n3)cc2)CC1 ... 5.4
CCn1c(=O)ccc2cnc(NC(C)(C)C)nc21 ... 2.28

I: CCn1c(=O)ccc2cnc(Nc3ccc(-n4cccc4)cc3)nc21
II: O=c1ccc2cnc(Nc3ccccc3)nc2n1C1CCCCCC1
In: Please indicate which has the smaller reported log(10'6/IC50): I , or II . Refer to your chosen item by its label in the answer.
Out: I

P: O=c1ccc2cnc(Nc3ccccc3)nc2n1Cc1ccccc1
Q: CCn1c(=O)ccc2cnc(Nc3cccc(OC(F)(F)C(F)F)c3)nc21
R: O=c1ccc2cnc(Nc3ccccc3)nc2n1[C@H]1C[C@H]2CC[C@H]1C2 (relative stereo)
In: // ranking: key=log(10'6/IC50), reverse=True Enter labels, ranked according to the request.
Out: R, P, Q
(R: 4.42, P: 3.03, Q: 2.11)

---

experiment: Binding affinity to CDK4/D
quantity.kind: log(10'6/IC50)

P: CCn1c(=O)ccc2cnc(NCc3ccccc3)nc21
Q: CCn1c(=O)ccc2cnc(Nc3ccc(OCCOC)cc3)nc21
In: Please indicate which has the smaller reported log(10'6/IC50): P , or Q . Refer to your chosen item by its label in the answer.
Out: P

---

test: Binding affinity to CDK4/D
quantity.kind: log(10'6/IC50)

Below, 5 compounds whose answers are already recorded.
CCN(CC)CCOc1ccc(Nc2ncc3ccc(=O)n(C(C)C)c3n2)cc1 ... 4.35
CCn1c(=O)ccc2cnc(Nc3ccc(N4CCOCC4)cc3)nc21 ... 3.52
CCn1c(=O)ccc2cnc(Nc3ccc(O)cc3)nc21 ... 3.23
O=c1ccc2cnc(Nc3ccccc3)nc2n1C1CCCCC1 ... 4.33
CCC(C)n1c(=O)ccc2cnc(Nc3ccccc3)nc21 (stereo not drawn) ... 3.72

P: CC(C)n1c(=O)ccc2cnc(Nc3ccccc3)nc21
Q: CCOCCn1c(=O)ccc2cnc(Nc3ccccc3)nc21
In: Please indicate which has the smaller reported log(10'6/IC50): P , or Q . Refer to your chosen item by its label in the answer.
Out: Q
(Q: 2.11, P: 3.84)
